Taken from PubChem BioAssay (NCI).

- System: SNB-19 CNS
- Assay comment: NCI tumour cell line growth inhibition, 48 h
List of TGI values.

As a guide, the following entries are already answered.
O=C(Oc1c(Br)cc(Br)cc1C(=O)Oc1ccccc1)C(=O)Oc1c(Br)cc(Br)cc1C(=O)Oc1ccccc1 :: 64.8 µM
C#CCn1c(=O)c2cccnc2n(CC#C)c1=O :: > 100 µM
O=C(O)c1cn(C2CC2)c2cc(N3CCN(C(=O)Nc4nc(-c5ccc(Br)cc5)cs4)CC3)c(F)cc2c1=O :: > 100 µM
CN1CCN(c2ccc3[nH]c(C4=C(O)C(=O)[C@@H]5C(=C4O)N=C(CO)N5C)nc3n2)CC1 :: > 100 µM
O=C1CCN2C(=N1)Sc1ccccc12 :: > 100 µM

Request the reported TGI associated with "O=C1CCSc2nc(-c3ccc4c(c3)OCO4)nn21" > 10 µM

Next up: C=CC(OC(=O)C(C)C)c1ccc(OC(=O)C(C)C)cc1 (stereo unspecified) 28.2 µM

Next up: "O=C(Nc1ccccc1)c1cccc([N+](=O)[O-])c1" > 100 µM

Next up: "O=C(c1cccs1)c1nc2cc(Cl)ccc2[n+]([O-])c1C(F)(F)F" > 100 µM

Next up: "CC1(C)SCc2nc3ccccc3n21" > 100 µM

Next up: COc1ccc(NS(=O)c2c(C)cc(C)cc2C)cc1 (stereo unspecified) > 100 µM

Next up: "CCCCCCCCCC/C=C/C=O" > 100 µM

Next up: N#CCC1C2CC3C(C2=O)C13 (stereo unspecified) > 100 µM

Next up: "N#Cc1c2ccccc2c2nnc3ccc(C(F)(F)F)cc3n12" > 100 µM

Next up: "NCCCn1c2c(c3ccc([N+](=O)[O-])cc3c1=O)C(=O)c1cc(F)ccc1-2" 1.52 µM

Next up: CCN1C(=O)N(CC)C2C1NC(=S)N2/N=C/C=C/c1ccccc1OC (stereo unspecified) > 100 µM

---

- Test system: NCI/ADR-RES ovarian
- Assay comment: NCI tumour cell line growth inhibition, 48 h
Endpoint name: TGI

As a guide, the following entries are already answered.
CCCCCCc1cc2cc(-c3csc(/C=C/c4ccccc4)n3)c(=O)oc2cc1O :: 17.7 µM
Cc1cc(C)c(NC(=O)/C=C/c2ccccc2)c(C)c1 :: > 100 µM
CCOC(=O)C1(C#N)C(C#N)(C#N)C1(C#N)C#N :: > 100 µM

Request the reported TGI associated with "Cc1cccc(N=C/C=C(\Cl)c2ccc3ccccc3c2)c1" 47.7 µM

Next up: "Cn1c(=O)c2[nH]c(CCCc3ccc([N+](=O)[O-])cc3)nc2n(C)c1=O" > 100 µM

Next up: CS(=N)(=O)CCC(N)P(=O)(O)O (stereo not given) > 100 µM

Next up: CCCCCCCC(CC(=O)NC(CO)C(=O)NC(CO)CC(C)C)OC(=O)CC(CCCCCCC)OC(=O)CC(CCCCCCC)OC1OC(C)C(O)C(OC2OC(C)C(O)C(O)C2O)C1O (stereo not given) 33.7 µM

Next up: "c1ccc(-c2cc(-c3ccncc3)cc(-c3ccncc3)n2)cc1" > 100 µM

Next up: "NC(=O)CCc1ccccc1Oc1nccc(-c2c(-c3ccc(F)cc3)ncn2C2CCNCC2)n1" > 25 µM

Next up: "NS(=O)(=O)c1ccc(N=C2C(=O)Nc3ccccc32)cc1" > 100 µM

Next up: "CCOC(=O)Nc1n[nH]nc1Cl" > 100 µM

Next up: "O=C1NC(=O)C(c2ccccc2)=C1Nc1ccccc1" > 25 µM

Next up: "O=C(O)c1ccc(Oc2nc3ccccc3s2)cc1" > 100 µM

Next up: "CCOC(=O)c1cn(CC)c2ccc3ccsc3c2c1=O" > 100 µM

---

- Test system: HOP-92 NSCLC
- Assay comment: NCI tumour cell line growth inhibition, 48 h
List of TGI values.

As a guide, the following entries are already answered.
CC(=O)O[C@H]1CC[C@@]2(C)C(=CC[C@@H]3[C@@H]2CC[C@](C)(c2nnc(C)o2)[C@H]3CC#N)C1 :: > 100 µM
CC1=NC=C(O)c2ccccc2O1 :: > 100 µM
N#CC(/C(=N/NC(N)=S)C(=O)Nc1cccc(Cl)c1)c1ccccc1 (stereo not drawn) :: > 100 µM
Cc1cc(C)c(S(=O)(=O)N(CCCN)OCCON(CCCN)S(=O)(=O)c2c(C)cc(C)cc2C)c(C)c1 :: > 21.6 µM
Nc1nc(Br)nc2ncn(C3CC(O)C(CO)O3)c12 (stereo not drawn) :: > 100 µM
CO[C@H]1O[C@@H]2OC3(C)CCC4[C@H](C)CCC([C@H]1C)[C@]42OO3 (stereo partly drawn) :: > 100 µM
O=C(Nc1ccccc1)c1cccc([N+](=O)[O-])c1 :: > 100 µM

Then this compound:
Request the reported TGI associated with "O=Cc1ccc(-c2ccc(-c3ccc(C=O)o3)[se]2)o1" > 100 µM

---

- System: NCI-H522 lung
- Assay comment: NCI tumour cell line growth inhibition, 48 h; in the data active means GI50 below about 0.43 µM; inactive means the rest
Outcome (select one): Y = active, N = inactive

Observe how each entry below is paired with its result.
N#C/C(=C\c1ccc(F)cc1)n1nc2cccc(F)c2n1 :: N
Cc1cc(C(O)(c2ccc(Nc3ccccc3)cc2)c2ccc(Nc3ccc(S(=O)(=O)O)cc3)cc2)ccc1N (stereo unspecified) :: N

// outcome(item) with item = "CCCCN(CC)CCCCCCCCCCN1CCCc2cc(OC)ccc21" N

Next up: "NC(=O)CCc1ccccc1Oc1nccc(-c2c(-c3ccc(F)cc3)ncn2C2CCNCC2)n1" N

Next up: "CN(CSc1ccc(Cl)cc1)c1ccc(CSc2ccc(Cl)cc2)cc1" N

Next up: "COc1ncc(-c2ccc3nccc(C#CCN4CCN(S(C)(=O)=O)CC4)c3c2)cc1NS(=O)(=O)c1ccc(F)cc1F" Y

---

- System: CCRF-CEM leukemia
- Assay comment: NCI tumour cell line growth inhibition, 48 h
List of TGI values.

CCOC(=O)/C(=C/c1ccccc1Br)P(=O)(OCC)OCC :: 3.16 µM
O=C1CCN2C(=N1)Sc1ccccc12 :: > 100 µM
COC(=O)CC(CNC(=O)OCc1ccccc1)OCc1ccc(OC)cc1 (centres undefined) :: > 100 µM
C(=N\NC1=NCCN1)/c1cccc2cc3ccncc3nc12 :: 3.8 µM
CCC(C)(C)[C@H](NC(=O)[C@H]1CCCCN1C)C(=O)N(C)[C@H](C[C@@H](OC(C)=O)c1nc(C(=O)N[C@@H](Cc2ccccc2)C[C@H](C)C(=O)O)cs1)C(C)C :: > 16.7 µM

Request the reported TGI associated with "CCOC(=O)c1cn(CC)c2ccc3ccsc3c2c1=O" > 100 µM

Next up: "O=c1oc2ccc3ccccc3c2cc1-c1cn2c(n1)sc1ccccc12" > 100 µM

Next up: C=CCC12CCC(=O)[C@@]1(C)CC=C(O)C2=O (some centres undefined) > 100 µM

Next up: COc1cc(/C=C/C(=O)c2ccc(F)cc2)ccc1OCCCCCOc1cc2c(cc1OC)C(=O)N1CCCC1C=N2 (centres undefined) 0.0258 µM

---

- System: HCT-116 colon
- Assay comment: NCI tumour cell line growth inhibition, 48 h
List of TGI values.

As a guide, the following entries are already answered.
CCC(c1ccc(OC)cc1)C1NC(=S)NC1=O (stereo not given) :: > 50 µM
FC(F)(F)c1ccc(-c2ncc(-c3ccc(C(F)(F)F)cc3)c(NCc3cc(C(F)(F)F)cc(C(F)(F)F)c3)n2)cc1 :: > 100 µM
O=[N+]([O-])c1ccc(CN=C2NNS(=O)(=O)c3ccccc32)cc1 :: > 100 µM
NS(=O)(=O)c1ccc(N=C2C(=O)Nc3ccccc32)cc1 :: > 100 µM

Then this compound:
Tell me reported TGI for "COC(=O)c1nc(C(=O)OC)c2c([nH]c3ccccc32)c1C(=O)OC" , tested with HCT-116 colon. > 100 µM

---

- Test system: RPMI-8226 leukemia
- Assay comment: NCI tumour cell line growth inhibition, 48 h; in the data active = GI50 below about 0.43 µM; inactive = the rest
Outcome (select one): active, inactive

Observe how each entry below is paired with its result.
CCCCN(CC)CCCCCCCCCCN1CCCc2cc(OC)ccc21 :: inactive
Oc1ccc(Cc2ccc(O)c(C3CC(c4ccc(Cl)cc4)=NN3)c2)cc1C1CC(c2ccc(Cl)cc2)=NN1 (stereo unspecified) :: inactive
COc1ncc(-c2ccc3nccc(C#CCN4CCN(S(C)(=O)=O)CC4)c3c2)cc1NS(=O)(=O)c1ccc(F)cc1F :: active

// outcome(item) with item = "CCOC(=O)Nc1ccc2c(c1)N(C(=O)CCN(CC)CC)c1ccccc1S2" inactive

Next up: "NC(=N\N=C/c1ccc(Cl)cc1Cl)/C(N)=N\N=C/c1ccc(Cl)cc1Cl" inactive

Next up: "NCCCNc1nc2ccc(Cl)cc2c2c(=O)c3cc(F)ccc3sc12" inactive
